# measured-target: Human αvβ3 (Homo sapiens, UniProt P05106+P06756)
# Construct: purchased Chemicon International Inc., Temecula, Calif
# Sequence (P06756 31-889 limits assumed): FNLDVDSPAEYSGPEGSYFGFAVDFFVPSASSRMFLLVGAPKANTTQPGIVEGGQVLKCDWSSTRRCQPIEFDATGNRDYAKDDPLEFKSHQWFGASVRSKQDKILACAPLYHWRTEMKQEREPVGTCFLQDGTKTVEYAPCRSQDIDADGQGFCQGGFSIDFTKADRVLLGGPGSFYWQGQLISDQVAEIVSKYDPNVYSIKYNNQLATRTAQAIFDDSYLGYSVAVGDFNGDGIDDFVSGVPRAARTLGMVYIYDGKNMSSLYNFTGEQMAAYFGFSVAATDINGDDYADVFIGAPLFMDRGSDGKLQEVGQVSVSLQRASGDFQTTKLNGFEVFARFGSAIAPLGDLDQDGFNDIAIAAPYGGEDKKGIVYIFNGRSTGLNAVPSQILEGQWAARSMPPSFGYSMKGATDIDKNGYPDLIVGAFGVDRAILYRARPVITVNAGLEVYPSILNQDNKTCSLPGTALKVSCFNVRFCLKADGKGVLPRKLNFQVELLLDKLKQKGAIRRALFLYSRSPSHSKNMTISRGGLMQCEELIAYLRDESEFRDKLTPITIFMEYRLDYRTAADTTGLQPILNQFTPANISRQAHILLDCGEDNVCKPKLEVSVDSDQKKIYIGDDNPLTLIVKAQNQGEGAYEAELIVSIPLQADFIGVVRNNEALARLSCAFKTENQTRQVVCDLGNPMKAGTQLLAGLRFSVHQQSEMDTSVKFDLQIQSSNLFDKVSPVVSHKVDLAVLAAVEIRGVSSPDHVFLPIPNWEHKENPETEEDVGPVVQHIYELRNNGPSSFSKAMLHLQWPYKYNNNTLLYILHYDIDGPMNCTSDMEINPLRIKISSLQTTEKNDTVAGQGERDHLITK
# Sequence (P06756 891-1048 partner limits assumed): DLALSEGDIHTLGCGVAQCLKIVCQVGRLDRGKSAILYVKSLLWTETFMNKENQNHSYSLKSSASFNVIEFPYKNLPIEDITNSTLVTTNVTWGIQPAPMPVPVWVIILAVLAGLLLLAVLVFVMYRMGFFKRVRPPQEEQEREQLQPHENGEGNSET
# Sequence (P05106 27-788): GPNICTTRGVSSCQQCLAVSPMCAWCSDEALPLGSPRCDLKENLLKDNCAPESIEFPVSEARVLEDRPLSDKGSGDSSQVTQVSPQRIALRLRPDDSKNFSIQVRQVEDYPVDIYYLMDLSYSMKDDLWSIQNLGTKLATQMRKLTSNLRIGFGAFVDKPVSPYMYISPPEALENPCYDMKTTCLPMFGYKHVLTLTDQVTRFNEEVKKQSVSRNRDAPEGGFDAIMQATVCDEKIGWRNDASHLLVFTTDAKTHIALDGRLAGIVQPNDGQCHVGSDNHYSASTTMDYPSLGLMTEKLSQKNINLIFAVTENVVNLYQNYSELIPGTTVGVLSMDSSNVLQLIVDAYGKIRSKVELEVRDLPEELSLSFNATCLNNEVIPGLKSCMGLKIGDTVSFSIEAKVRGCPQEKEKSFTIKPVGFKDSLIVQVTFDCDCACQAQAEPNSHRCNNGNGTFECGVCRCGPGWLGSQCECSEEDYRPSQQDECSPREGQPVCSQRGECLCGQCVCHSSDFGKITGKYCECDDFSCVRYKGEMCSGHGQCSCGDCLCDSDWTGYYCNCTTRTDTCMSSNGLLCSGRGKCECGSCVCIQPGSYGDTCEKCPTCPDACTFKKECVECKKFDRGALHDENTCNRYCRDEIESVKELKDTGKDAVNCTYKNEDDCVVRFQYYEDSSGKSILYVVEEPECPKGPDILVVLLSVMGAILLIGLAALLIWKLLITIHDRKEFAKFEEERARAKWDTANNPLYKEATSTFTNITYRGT
# assay-protocol: In Vitro Solid Phase Purified αvβ3 Binding Assay (vitronectin/αvβ3)
# experimental-parameters: αvβ3IC50 (uM), vitronectin binding to immobilized purified human αvβ3; mean ± spread
Values of IC50 strictly less than 0.002 µM map to yes, and values of at least 0.002 µM map to no.

Completed entries (count: 5):
>>> label_class("O=C(O)CC(C1CCN(C(=O)CCCc2ccc3c(n2)NCCC3)CC1)C1CNc2ccccc2C1 (single isomer, unassigned) [Cpd 5-3]")
"no"
>>> label_class("CN1CC(C(CC(=O)O)CC2CCN(C(=O)CCc3ccc4c(n3)NCCC4)CC2)Cc2ccccc21 (racemic) [Cpd 67]")
"no"
>>> label_class("O=C(O)CC(C1CCN(C(=O)CCCc2ccc3c(n2)NCCC3)CC1)C1CNc2ccccc2C1 (single isomer, unassigned) [Cpd 5-4]")
"no"
>>> label_class("O=C(O)CC(CC1CCN(C(=O)CCc2ccc3c(n2)NCCC3)CC1)c1cnc2c(c1)CCCC2 (racemic) [Cpd 57]")
"yes"
>>> label_class("O=C(O)CC(CC1CCN(C(=O)CCc2ccc3c(n2)NCCC3)CC1)c1cnc2ccccc2c1 (centres unmarked) [Cpd 32]")
"yes"

In plain terms, does O=C(O)CC(c1cnc2ccccc2c1)C1CCN(C(=O)CCCc2ccc3c(n2)NCCC3)CC1 (centres unmarked) [Cpd 4] come in under 0.002 µM for IC50?
yes

In plain terms, does COc1ccc(C(CC(=O)O)CC2CCN(C(=O)CCc3ccc4c(n3)NCCC4)CC2)cn1 (centres unmarked) [Cpd 28] come in under 0.002 µM for IC50?
yes

In plain terms, does O=C(O)CC(C1CCN(C(=O)CCCc2ccc3c(n2)NCCC3)CC1)C1CNc2ccccc2C1 (centres unmarked) [Cpd 5] come in under 0.002 µM for IC50?
no

====

# log10 of IC50 values compiled below
# measured-target: human purified αVβ5 (Homo sapiens, UniProt P06756+P18084)
# Construct: purchased Chemicon International, Inc
# Sequence (P18084 24-799, one chain of several): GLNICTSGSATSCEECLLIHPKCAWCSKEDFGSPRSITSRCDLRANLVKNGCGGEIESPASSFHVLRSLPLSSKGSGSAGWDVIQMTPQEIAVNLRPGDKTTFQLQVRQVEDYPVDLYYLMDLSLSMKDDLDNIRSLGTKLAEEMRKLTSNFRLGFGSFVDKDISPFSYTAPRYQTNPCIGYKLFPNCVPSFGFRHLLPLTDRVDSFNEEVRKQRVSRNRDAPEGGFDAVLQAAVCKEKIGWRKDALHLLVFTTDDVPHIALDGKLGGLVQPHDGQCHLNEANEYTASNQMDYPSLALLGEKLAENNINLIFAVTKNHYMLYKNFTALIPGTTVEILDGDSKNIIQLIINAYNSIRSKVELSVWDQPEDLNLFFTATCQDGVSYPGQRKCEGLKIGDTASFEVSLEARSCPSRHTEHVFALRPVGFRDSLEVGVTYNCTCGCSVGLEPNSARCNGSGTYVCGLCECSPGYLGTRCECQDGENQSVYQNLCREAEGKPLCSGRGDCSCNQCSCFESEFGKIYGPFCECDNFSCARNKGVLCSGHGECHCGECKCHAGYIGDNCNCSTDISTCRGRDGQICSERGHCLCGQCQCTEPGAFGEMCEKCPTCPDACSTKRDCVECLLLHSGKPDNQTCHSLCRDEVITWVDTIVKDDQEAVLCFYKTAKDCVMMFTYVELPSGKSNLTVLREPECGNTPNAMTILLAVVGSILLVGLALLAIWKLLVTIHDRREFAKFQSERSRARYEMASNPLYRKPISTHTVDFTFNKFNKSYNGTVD
# assay-protocol: In Vitro Solid Phase Purified αcβ5 Binding Assay (vitronectin/αVβ5)
# experimental-parameters: αvβ5 IC50 (uM), vitronectin binding to immobilized purified human αVβ5; mean ± spread
Scale type: logarithmic (base 10). Underlying IC50 unit: µM.

Reference set (5 entries):
>>> value_reported("O=C(O)CC(CC1CCN(C(=O)CCc2ccc3c(n2)NCCC3)CC1)c1cnc2ccccc2c1 (stereo not shown) [Cpd 32]")
-2.66
>>> value_reported("O=C(O)CC(C1CCN(C(=O)CCCc2ccc3c(n2)NCCC3)CC1)C1CNc2ccccc2C1 (single isomer, unassigned) [Cpd 5-4]")
-0.79
>>> value_reported("O=C(O)CC(CC1CCN(C(=O)CCc2ccc3c(n2)NCCC3)CC1)c1cnc2c(c1)CCCC2 (racemic) [Cpd 57]")
-1.96
>>> value_reported("COc1ccc(C(CC(=O)O)CC2CCN(C(=O)CCc3ccc4c(n3)NCCC4)CC2)cn1 (stereo not shown) [Cpd 28]")
-2.57
>>> value_reported("CN1CC(C(CC(=O)O)CC2CCN(C(=O)CCc3ccc4c(n3)NCCC4)CC2)Cc2ccccc21 (racemic) [Cpd 67]")
-0.75

Value of log10 of IC50 reported for the compound O=C(O)CC(c1cnc2ccccc2c1)C1CCN(C(=O)CCCc2ccc3c(n2)NCCC3)CC1 (stereo not shown) [Cpd 4] is -1.45

Value of log10 of IC50 reported for the compound O=C(O)CC(C1CCN(C(=O)CCCc2ccc3c(n2)NCCC3)CC1)C1CNc2ccccc2C1 (stereo not shown) [Cpd 5] is -0.58
